Test: Pharmacokinetics in Rhesus monkeys
Format: in vivo
Conditions: rhesus monkey, plasma, 0.25 mg/kg
measure-name: half-life (h)
Please state the figure in h; there is no need to write the unit.

O=S(=O)(N[C@H]1CC[C@@](c2cc(F)ccc2F)(S(=O)(=O)c2ccc(Cl)cc2)CC1)C(F)(F)F	12

Prompt: Please give measured half-life of the following entry: "O=S(=O)(N[C@H]1CC[C@@](c2cc(F)ccc2C(F)(F)F)(S(=O)(=O)c2ccc(C(F)(F)F)cc2)CC1)C(F)(F)F"
Completion: 228

---

Test: Example A: PK profile in Rhesus monkeys, 30 mg/kg PO single dose
Assay type: in vivo
Conditions: rhesus monkey, plasma, read-out: plasma t ½
measure-name: half-life

Prompt: Please give measured half-life of the following entry: O=S(=O)(N[C@H]1CC[C@@](c2cc(F)ccc2C(F)(F)F)(S(=O)(=O)c2ccc(C(F)(F)F)cc2)CC1)C(F)(F)F [Example 1]
Completion: > 168 h

---

Readings of IC50 for the listed compounds
System: γ-secretase (APP processing), SH-SY5Y cells expressing amyloid β protein (SP4CT cells)
Assay: APP processing, secreted Aβ40 and Aβ42 from SH-SY5Y (SP4CT) cells, AlphaLisa
Settings: cell based assay, Aβ42, read-out: SY5Y Aβ42

O=S(=O)(N[C@H]1CC[C@@](c2cc(F)ccc2F)(S(=O)(=O)c2ccc(Cl)cc2)CC1)C(F)(F)F	510 pM

Prompt: Please give measured IC50 of the following entry: "O=S(=O)(N[C@H]1CC[C@@](c2cc(F)ccc2F)(S(=O)(=O)c2ccc(C(F)(F)F)cc2)CC1)C(F)(F)F"
Completion: 990 pM

---

Experiment: Example A: PK profile in Rhesus monkeys, 30 mg/kg PO single dose
Type: in vivo
Settings: rhesus monkey, plasma, read-out: AUC (0-24)
measure-name: AUC(0-t) (µM·h)
Please state the figure in µM·h; there is no need to write the unit.

Prompt: Please give measured AUC(0-t) of the following entry: "O=S(=O)(N[C@H]1CC[C@@](c2cc(F)ccc2C(F)(F)F)(S(=O)(=O)c2ccc(C(F)(F)F)cc2)CC1)C(F)(F)F"
Completion: 138

---

Molecular target: semi-purified γ-secretase
Test: In vitro APP processing (C100Flag substrate, semi-purified γ-secretase, MESO Scale ELISA), rat brain membranes
Format: biochemical
Details: in vitro assay, Aβ42, read-out: Tissue autonomous Aβ42, Rat
measure-name: pIC50
pIC50 here: minus log base 10 of the concentration, concentration in moles per litre.

Prompt: Please give measured pIC50 of the following entry: O=S(=O)(N[C@H]1CC[C@@](c2cc(F)ccc2F)(S(=O)(=O)c2ccc(Cl)cc2)CC1)C(F)(F)F [MRK-560]
Completion: 9.40

---

Biological target: semi-purified γ-secretase
Assay: In vitro APP processing (C100Flag substrate, semi-purified γ-secretase, MESO Scale ELISA), mouse brain membranes
Assay type: biochemical
Conditions: in vitro assay, Aβ42, read-out: Tissue autonomous Aβ42, Mouse
measure-name: pIC50
pIC50 here: minus log base 10 of the concentration, concentration in moles per litre.

Prompt: Please give measured pIC50 of the following entry: "O=S(=O)(N[C@H]1CC[C@@](c2cc(F)ccc2F)(S(=O)(=O)c2ccc(Cl)cc2)CC1)C(F)(F)F"
Completion: 9.40

---

Target: semi-purified γ-secretase
Assay: In vitro APP processing (C100Flag substrate, semi-purified γ-secretase, MESO Scale ELISA), mouse brain membranes
Assay type: biochemical
Details: in vitro assay, Aβ40, read-out: Tissue autonomous Aβ40, Mouse
Readings of pIC50 for the listed molecules
pIC50 here: minus log base 10 of the concentration, concentration in moles per litre.

O=S(=O)(N[C@H]1CC[C@@](c2cc(F)ccc2C(F)(F)F)(S(=O)(=O)c2ccc(C(F)(F)F)cc2)CC1)C(F)(F)F [Example 1]	8.62

With those in mind, consider the next molecule.
Prompt: Using semi-purified γ-secretase as the test system, report measured pIC50 of O=S(=O)(N[C@H]1CC[C@@](c2cc(F)ccc2F)(S(=O)(=O)c2ccc(Cl)cc2)CC1)C(F)(F)F [MRK-560] .
Completion: 9.10
